# target.desc: Na^+ /H^+ exchanger of rabbit erythrocytes (Oryctolagus cuniculus, UniProt P23791)
# Construct: determine the Na^+ influx into the erythrocytes; endogenous in cells
# Sequence (P23791 whole entry): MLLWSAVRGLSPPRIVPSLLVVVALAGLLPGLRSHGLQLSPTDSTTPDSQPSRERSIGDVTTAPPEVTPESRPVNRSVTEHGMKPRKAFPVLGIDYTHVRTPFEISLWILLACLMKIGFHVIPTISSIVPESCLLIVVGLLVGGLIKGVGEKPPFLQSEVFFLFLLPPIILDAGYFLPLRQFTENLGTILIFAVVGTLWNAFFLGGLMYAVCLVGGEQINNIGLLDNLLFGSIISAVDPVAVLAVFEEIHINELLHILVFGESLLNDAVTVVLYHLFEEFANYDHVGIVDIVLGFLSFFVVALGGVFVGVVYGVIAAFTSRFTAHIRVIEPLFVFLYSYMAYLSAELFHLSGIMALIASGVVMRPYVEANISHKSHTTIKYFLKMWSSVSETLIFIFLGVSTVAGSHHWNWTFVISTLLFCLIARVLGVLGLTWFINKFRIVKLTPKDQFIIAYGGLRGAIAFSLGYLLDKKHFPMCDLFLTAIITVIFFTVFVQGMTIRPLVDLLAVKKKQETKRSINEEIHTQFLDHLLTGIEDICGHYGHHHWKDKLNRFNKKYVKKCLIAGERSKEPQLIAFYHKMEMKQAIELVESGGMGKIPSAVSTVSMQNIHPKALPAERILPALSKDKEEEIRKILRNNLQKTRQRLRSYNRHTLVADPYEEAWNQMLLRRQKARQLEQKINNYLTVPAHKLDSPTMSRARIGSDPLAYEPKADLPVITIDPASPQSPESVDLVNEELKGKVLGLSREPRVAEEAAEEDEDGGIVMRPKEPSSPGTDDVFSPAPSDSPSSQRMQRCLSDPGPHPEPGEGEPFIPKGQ
# procedure.text: Inhibition of the Na^+ /H^+ exchanger of rabbit erythrocytes (amiloride-sensitive sodium influx, flame photometry)
# condition.summary: pH 7.4, 37° C.
# Experimental: Inhibition of the Na^+ /H^+ exchanger of rabbit erythrocytes: […] In order to determine the amiloride-sensitive sodium influx, 100 μl of each blood sample were in each case incubated, at pH 7.4 and 37° C., in 5 ml of a hyperosmolar salt/sucrose medium ([…]: 140 NaCl, 3 KCl, 150 sucrose, 0.1 ouabain, 20 tris(hydroxymethyl)aminomethane). […] The intracellular content of sodium was determined by flame photometry. […]
Structures can show the parent of a compound that is named as a salt.

[
  {
    "compound": "NC(N)=NC(=O)c1cnc2ccccc2c1 [Example 2, Dihydrochloride]",
    "unit.label": "µM",
    "reading.qualifier": "=",
    "IC50": 1.2
  },
  {
    "compound": "NC(N)=NC(=O)c1ccc2cnccc2c1 [Example 4, Isoquinoline-6-carboguanidide]",
    "unit.label": "µM",
    "reading.qualifier": "=",
    "IC50": 10
  },
  {
    "compound": "Cc1nc2ccc(Cl)cc2cc1C(=O)N=C(N)N [Example 8, hydrochloride]",
    "unit.label": "µM",
    "reading.qualifier": "<",
    "IC50": 1
  }
]
